pIC50: −log10 of the molar value.
Parameter 'readout' = pIC50; parameter 'system' = CYP2E1 (Homo sapiens, UniProt P05181).
Sequence (P05181 whole entry): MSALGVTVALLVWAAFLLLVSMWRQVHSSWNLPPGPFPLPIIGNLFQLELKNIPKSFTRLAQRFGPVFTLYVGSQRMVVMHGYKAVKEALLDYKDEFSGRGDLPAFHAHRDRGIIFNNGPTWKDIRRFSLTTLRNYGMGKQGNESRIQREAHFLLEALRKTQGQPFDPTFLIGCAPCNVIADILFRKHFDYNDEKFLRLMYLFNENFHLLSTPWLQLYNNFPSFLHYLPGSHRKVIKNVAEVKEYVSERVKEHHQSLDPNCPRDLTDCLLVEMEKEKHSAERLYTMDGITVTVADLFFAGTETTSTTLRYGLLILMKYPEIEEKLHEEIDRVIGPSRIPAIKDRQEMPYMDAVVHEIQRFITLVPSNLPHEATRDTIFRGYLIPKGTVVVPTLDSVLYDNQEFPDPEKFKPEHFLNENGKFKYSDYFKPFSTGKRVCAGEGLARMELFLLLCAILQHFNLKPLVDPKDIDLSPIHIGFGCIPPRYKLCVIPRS

{"compound": "NCCOP(=O)(O)O [PhosE, phosphoethanolamine]", "pIC50": "< 4.00"}

Lab note: next compound to report on.
Param item = NCCO [Etn, monoethanolamine] ; retrieve measured pIC50.
< 4.00

====

experiment: in vivo; design: species or system SD rats; details: male, SD, rat, po, 40 mg/kg, pH 7.4, Cmax
property: Cmax (ng/mL)
Numbers only, in ng/mL.

Data request, read-out Cmax, for NCCO
23700

====

test: Pharmacokinetic studies, single oral and intravenous dose; assay type: in vivo, BALB/c mice; conditions: male, BALB/c, mouse, plasma; PhosE 3 mg/kg iv, analyte PhosE; read-out: Cmax/C0
property: Cmax (ng/mL)
Numbers only, in ng/mL.

Query: Cmax; subject: NCCOP(=O)(O)O
1250
